# Test system: TK-10 renal
# Protocol summary: NCI-60 one-dose screen, 48 h
# Run conditions: 10 µM unless noted
The panel holds about 83,000 compounds, 20% with a hit somewhere; the sample as a whole holds those more often. Calls of active or inactive are those of the source. How the source made its calls: active means growth percent below 10; inactive means the rest.
In this exercise, the only acceptable responses are active, inactive

Prompt line: Check the results log: what was the call for O=C(CN1CCN(c2cc(=O)n(-c3ccccc3)c3ccccc23)CC1)Nc1nc(-c2ccc(Cl)cc2)cs1 ?
Response line: inactive

Prompt line: Check the results log: what was the call for CCN1CCN(Cc2ccc(C(=O)Nc3ccc(C)c(Oc4ccc(-c5[nH]nc6ncnc(N)c56)cc4)c3)cc2C(F)(F)F)CC1 ?
Response line: inactive

Prompt line: Check the results log: what was the call for COc1ccc2c(c1)Oc1nc(N)c(C#N)c(N)c1C2Sc1ccc(C)cc1 (stereo not drawn) ?
Response line: active

Prompt line: Check the results log: what was the call for CCCn1cnc2c(c1=N)C(c1ccc(Cl)cc1)c1sc3c(C)cccc3c1O2 (stereo not drawn) ?
Response line: inactive

Prompt line: Check the results log: what was the call for COc1c(N2CC3CCCNC3C2)c(F)cc2c(=O)c(C(=O)N/N=C/c3ccccc3)cn(C3CC3)c12 (stereo not drawn) ?
Response line: inactive

Prompt line: Check the results log: what was the call for Nc1nc(Nc2ccccc2SSc2ccccc2Nc2nc(N)nc(-c3ccccc3)n2)nc(-c2ccccc2)n1 ?
Response line: inactive

Prompt line: Check the results log: what was the call for COc1cccc(C(=O)Nc2cccc(C#Cc3cccc4[nH]nc(N)c34)c2)c1 ?
Response line: inactive

Prompt line: Check the results log: what was the call for C/C(=N\O)[C@H]1C[C@]23CC[C@]4(C)[C@H](CC[C@@H]5[C@@]6(C)CC/C(=N/O)C(C)(C)[C@@H]6CC[C@]54C)[C@H]2[C@H](C)C1(C)OC3 ?
Response line: inactive

Prompt line: Check the results log: what was the call for CNC(=O)c1cc(-c2ccc(NC(=S)Nc3cc(C(F)(F)F)cc(C(F)(F)F)c3)cc2)nc2cccnc12 ?
Response line: inactive

Prompt line: Check the results log: what was the call for COc1c(N2CC3CCCNC3C2)c(F)cc2c(=O)c(C(=O)N/N=C/c3ccc(Br)cc3)cn(C3CC3)c12 (stereo not drawn) ?
Response line: inactive

Prompt line: Check the results log: what was the call for Cc1ccc(-c2cc3nc(C(Cl)Cl)nc(C)n3n2)cc1 ?
Response line: inactive

Prompt line: Check the results log: what was the call for O=C(NNc1nc2cc(F)c(F)cc2n2c(CN3CC4CNCC4C3)ccc12)c1ncccn1 (stereo not drawn) ?
Response line: inactive

Prompt line: Check the results log: what was the call for C#C[C@]1(O)CC[C@H]2[C@@H]3CC=C4c5sc(-c6cccc(O)c6)nc5CC[C@]4(C)[C@H]3CC[C@@]21C ?
Response line: active

Prompt line: Check the results log: what was the call for Cc1ccc(-n2c(/C=C3\C(=O)Nc4ccccc43)ccc2CO)cc1 ?
Response line: inactive

Prompt line: Check the results log: what was the call for NC(N)=Nc1ccc(Oc2cccc(Nc3ccc(Cl)c(C(F)(F)F)c3)c2)cn1 ?
Response line: inactive

Prompt line: Check the results log: what was the call for Nc1ccccc1NC(=O)c1ccc(NC(=O)C/C=C/c2cccnc2)cn1 ?
Response line: inactive

Prompt line: Check the results log: what was the call for O=C1C(c2ccccc2)=C(N2CCc3ccccc32)OC1(Cl)Cl ?
Response line: inactive

Prompt line: Check the results log: what was the call for N#Cc1cnc2ccc(-c3cnc4[nH]ncc4c3)cc2c1N1CCc2cc(F)c(Cl)cc21 ?
Response line: inactive

From: PubChem BioAssay (NCI)
